The following molecules are shown together with reported remaining at 0.5 h values.
Test: Liver microsomal stability, human
Assay type: in vitro ADME
Conditions: human liver microsomes; 30 min; percent of parent remaining; read-out: Liver Microsomal stability (%), % of remaining after 30 min, Human

Reference set, count: 2
> print(dat)
                                chem.smiles  test.value
1  Cc1ccccc1[C@@H](C)OC(=O)Nc1c(C)noc1C1CCN(c2ccc(C3(C(=O)NS(N)(=O)=O)CC3)cc2)CC1   25 to 50%
2  Cc1noc(C2CCN(c3ccc(C4(C(=O)NS(=O)(=O)C(C)(C)C(=O)O)CC4)cc3)CC2)c1NC(=O)O[C@H](C)c1ccccc1       > 75%

Consider the record given below.
Given item Cc1noc(C2CCN(c3ccc(C4(C(=O)NS(=O)(=O)CCCC(=O)O)CC4)cc3)CC2)c1NC(=O)O[C@H](C)c1ccccc1 , the value recorded as its remaining at 0.5 h is 50 to 75%

----------
The following compounds are shown together with reported IC50 values.
Biological target: hLPAR1 (Homo sapiens, UniProt Q92633)
Construct: expressed in transfected cells
Sequence (Q92633 whole entry): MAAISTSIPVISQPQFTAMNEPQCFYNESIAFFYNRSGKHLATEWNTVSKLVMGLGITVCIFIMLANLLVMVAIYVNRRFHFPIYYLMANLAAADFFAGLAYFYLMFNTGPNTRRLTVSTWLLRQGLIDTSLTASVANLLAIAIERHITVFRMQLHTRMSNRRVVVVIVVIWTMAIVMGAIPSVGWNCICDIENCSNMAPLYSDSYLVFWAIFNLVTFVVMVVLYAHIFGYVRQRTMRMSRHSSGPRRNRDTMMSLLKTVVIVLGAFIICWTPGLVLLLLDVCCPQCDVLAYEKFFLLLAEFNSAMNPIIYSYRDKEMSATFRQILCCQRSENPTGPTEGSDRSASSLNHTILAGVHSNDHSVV
Assay: Ca2+ Flux Assay (B103 cells stably expressing hLPAR1)
Format: cell-based
Settings: LPA-induced calcium release, Fura-2 AM, compound 20 min at RT

> print(dat)
                                   compound    test.value
1  Cc1noc(C2CCN(c3ccc(C4(C(=O)O)CC4)cc3)CC2)c1C(O)CCCc1ccccc1 (stereo not shown)  10 to 200 nM
2  Cc1noc(C2CC3(C2)CN(c2ccc(C4(C(=O)O)CC4)cc2)C3)c1NC(=O)O[C@H](C)c1ccccc1  10 to 200 nM
3  Cc1noc(C2CCN(c3ccc(C4(C(=O)O)CC4)cc3)CC2)c1Nc1cccc(-c2ccccc2)n1  10 to 200 nM
4  Cc1noc(C2CCN(c3ccc(C4(C(=O)O)CC4)cc3)CC2)c1NC(=O)O[C@H](C)c1ccccc1Cl       < 10 nM
5  C[C@@H](OC(=O)Nc1c(C2CCN(c3ccc(C4(C(=O)O)CC4)cc3)CC2)nnn1C)c1ccccc1Cl       < 10 nM
6  C[C@@H](OC(=O)Nc1c(C2CCN(c3ccc(C4(C(=O)NS(=O)(=O)C5(C(=O)O)CC5)CC4)cc3)CC2)nnn1C)c1ccccc1Cl       < 10 nM

Given item Cc1noc(C2CCN(c3ccc(C4(C(=O)NS(C)(=O)=O)CC4)cc3)CC2)c1NC(=O)O[C@H](C)c1ccccc1 , the value recorded as its IC50 is 10 to 200 nM

----------
The following compounds are shown together with reported IC50 values.
Biological target: hLPAR1 (Homo sapiens)
Assay: Ca2+ Flux Assay (B103 cells stably expressing hLPAR1)
Conditions: LPA-induced calcium release, Fura-2 AM, compound 20 min at RT

Fill in: hLPAR1 (Homo sapiens) IC50 for Cc1noc(C2CCN(c3ccc(C4(C(=O)NS(=O)(=O)CCCO)CC4)cc3)CC2)c1NC(=O)O[C@H](C)c1ccccc1 = < 10 nM

Fill in: hLPAR1 (Homo sapiens) IC50 for Cc1noc(C2CCN(c3ccc(C4(C(=O)NS(C)(=O)=O)CC4)cc3)CC2)c1NC(=O)O[C@H](C)c1ccccc1Cl = 10 to 200 nM

Fill in: hLPAR1 (Homo sapiens) IC50 for Cc1noc(C2CC3(C2)CN(c2ccc(C4(C(=O)NS(=O)(=O)CC(=O)O)CC4)cc2)C3)c1NC(=O)O[C@H](C)c1ccccc1 = 10 to 200 nM

Fill in: hLPAR1 (Homo sapiens) IC50 for Cc1noc(C2CCN(c3ccc(C4(C(=O)NS(=O)(=O)C(F)(F)C(N)=O)CC4)cc3)CC2)c1NC(=O)O[C@H](C)c1ccccc1 = < 10 nM

Fill in: hLPAR1 (Homo sapiens) IC50 for Cc1ccccc1[C@@H](C)OC(=O)Nc1c(C)noc1C1CCN(c2ccc(C3(C(=O)NS(N)(=O)=O)CC3)cc2)CC1 = < 10 nM

Fill in: hLPAR1 (Homo sapiens) IC50 for Cc1noc(C2CCN(c3ccc(C4(C(=O)O)CC4)cc3)CC2)c1NC(=O)N[C@H](C)c1ccccc1 = 10 to 200 nM

Fill in: hLPAR1 (Homo sapiens) IC50 for C[C@@H](OC(=O)Nc1c(C2CCN(c3ccc(C4(C(=O)O)CC4)cc3)CC2)nnn1C)c1ccccc1 = 10 to 200 nM

Fill in: hLPAR1 (Homo sapiens) IC50 for Cc1nnn(C2CCN(c3ccc(C4(C(=O)O)CC4)cc3)CC2)c1NC(=O)O[C@H](C)c1ccccc1 = < 10 nM

Fill in: hLPAR1 (Homo sapiens) IC50 for C[C@@H](OC(=O)Nc1c(C2CCN(c3ccc(C4(C(=O)NS(=O)(=O)CC(=O)O)CC4)cc3)CC2)nnn1C)c1ccccc1 = 10 to 200 nM

----------
The following compounds are shown together with reported inhibition at 0.25 h, 10 µM values.
Molecular target: BSEP (Homo sapiens)
Construct: ATP-dependent uptake of radiolabelled probe substrate
Sequence (O95342 whole entry): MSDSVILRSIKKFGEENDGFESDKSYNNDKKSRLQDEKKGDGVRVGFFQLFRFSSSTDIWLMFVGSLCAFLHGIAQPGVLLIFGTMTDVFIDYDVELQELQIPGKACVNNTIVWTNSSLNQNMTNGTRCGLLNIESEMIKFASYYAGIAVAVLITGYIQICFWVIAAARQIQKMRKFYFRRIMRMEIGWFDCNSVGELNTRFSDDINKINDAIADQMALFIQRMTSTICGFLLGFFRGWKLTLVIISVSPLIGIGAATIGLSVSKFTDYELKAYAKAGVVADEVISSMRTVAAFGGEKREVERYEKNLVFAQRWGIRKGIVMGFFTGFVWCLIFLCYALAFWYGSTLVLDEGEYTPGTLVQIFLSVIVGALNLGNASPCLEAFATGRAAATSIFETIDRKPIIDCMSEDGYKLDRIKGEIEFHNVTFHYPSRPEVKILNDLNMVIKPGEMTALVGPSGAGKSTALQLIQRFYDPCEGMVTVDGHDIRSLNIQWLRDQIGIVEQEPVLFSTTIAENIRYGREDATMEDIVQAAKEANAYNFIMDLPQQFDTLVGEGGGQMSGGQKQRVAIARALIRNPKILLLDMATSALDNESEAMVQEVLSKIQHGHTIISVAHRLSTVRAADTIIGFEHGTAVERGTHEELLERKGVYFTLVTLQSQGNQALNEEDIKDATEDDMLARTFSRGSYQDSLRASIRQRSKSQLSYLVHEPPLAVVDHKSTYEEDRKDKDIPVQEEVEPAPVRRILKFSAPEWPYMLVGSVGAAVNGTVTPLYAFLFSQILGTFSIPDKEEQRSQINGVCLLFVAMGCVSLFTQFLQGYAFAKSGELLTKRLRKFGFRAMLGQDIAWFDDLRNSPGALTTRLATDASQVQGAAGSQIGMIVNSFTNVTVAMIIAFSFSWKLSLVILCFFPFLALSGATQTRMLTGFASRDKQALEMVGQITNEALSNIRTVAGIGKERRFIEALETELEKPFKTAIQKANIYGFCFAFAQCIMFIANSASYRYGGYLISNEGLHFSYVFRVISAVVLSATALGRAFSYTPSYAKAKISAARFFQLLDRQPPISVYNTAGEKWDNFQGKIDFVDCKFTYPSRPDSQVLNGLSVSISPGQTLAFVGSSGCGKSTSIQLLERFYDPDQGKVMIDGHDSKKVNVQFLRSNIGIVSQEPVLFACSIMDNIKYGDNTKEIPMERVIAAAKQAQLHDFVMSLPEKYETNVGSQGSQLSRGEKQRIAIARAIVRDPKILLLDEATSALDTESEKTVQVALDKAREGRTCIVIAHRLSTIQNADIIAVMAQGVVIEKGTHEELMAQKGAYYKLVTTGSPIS
Assay: Bile Salt Export Pump (BSEP) Assay, Sf9 insect cell vesicles expressing BSEP
Format: in vitro ADME
Conditions: 10 μM test compound, probe substrate 1 μM [3H]-taurocholic acid, 15 min incubation

Reference set, count: 3
> print(dat)
                                   compound          system.name  test.value
1  CCc1ccccc1[C@@H](C)OC(=O)Nc1c(C)noc1C1CCN(c2ccc(C3(C(=O)NS(=O)(=O)CCC(=O)O)CC3)cc2)CC1  BSEP (Homo sapiens)   50 to 75%
2  C[C@@H](OC(=O)Nc1c(C2CCN(c3ccc(C4(C(=O)NS(=O)(=O)CCC(=O)O)CC4)cc3)CC2)nnn1C)c1ccccc1  BSEP (Homo sapiens)       ≤ 25%
3  Cc1noc(C2CCN(c3ccc(C4(C(=O)NS(=O)(=O)CC(C)CO)CC4)cc3)CC2)c1NC(=O)O[C@H](C)c1ccccc1 (stereo partly shown)  BSEP (Homo sapiens)   25 to 50%

Consider the record given below.
Given item Cc1noc(C2CCN(c3ccc(C4(C(=O)NS(=O)(=O)CCCC(=O)O)CC4)cc3)CC2)c1NC(=O)O[C@H](C)c1ccccc1 , the value recorded as its inhibition at 0.25 h, 10 µM is ≤ 25%

----------
Molecular target: hLPAR1 (Homo sapiens)
Assay: Ca2+ Flux Assay (B103 cells stably expressing hLPAR1)
Details: LPA-induced calcium release, Fura-2 AM, compound 20 min at RT
Measured parameter: IC50

Reference set, count: 5
> print(dat)
                                   compound  measured.parameter    test.value
1  C[C@@H](OC(=O)Nc1c(C2CCN(c3ccc(C4(C(=O)NS(=O)(=O)CC(C)(C)C(=O)O)CC4)cc3)CC2)nnn1C)c1ccccc1Cl [Compound 40]                IC50  10 to 200 nM
2  COc1ccccc1[C@@H](C)OC(=O)N(C)c1c(C)nsc1C1CCN(c2ccc(C3(C(=O)O)CC3)cc2)CC1 [Compound 44]                IC50  10 to 200 nM
3  C[C@@H](OC(=O)Nc1c(C2CCN(c3ccc(C4(C(=O)O)CC4)cc3)CC2)cnn1C)c1ccccc1 [Compound 55]                IC50  10 to 200 nM
4  Cc1noc(C2CCN(c3ccc(C4(C(=O)O)CC4)cc3)CC2)c1N(C)C(=O)O[C@H](C)c1ccccc1 [Compound 45]                IC50  10 to 200 nM
5  Cc1noc(C2CCN(c3ccc(C4(C(=O)NS(=O)(=O)CC(C)(C)C(=O)O)CC4)cc3)CC2)c1NC(=O)O[C@H](C)c1ccccc1 [Compound 78]                IC50       < 10 nM

Consider the record given below.
Given item C[C@@H](OC(=O)Nc1c(C2CCN(c3ccc(C4(C(=O)NS(=O)(=O)C(C)(C)C(=O)O)CC4)cc3)CC2)nnn1C)c1ccccc1 [Compound 56] , the value recorded as its IC50 is < 10 nM

----------
Assay: Liver microsomal stability, rat
Assay type: in vitro ADME
Conditions: rat liver microsomes; 30 min; percent of parent remaining; read-out: Liver Microsomal stability (%), % of remaining after 30 min, Rat
The following compounds are shown together with reported remaining at 0.5 h values.

Reference set, count: 6
> print(dat)
                                   compound  test.value
1  Cc1noc(C2CCN(c3ccc(C4(C(=O)O)CC4)cc3)CC2)c1CNC(=O)O[C@@H](C)c1ccccc1       > 75%
2  Cc1noc(C2CCN(c3ccc(C4(C(=O)O)CC4)cc3)CC2)c1N[C@H](C)CCc1ccccc1   50 to 75%
3  Cc1noc(C2CCN(c3ccc(C4(c5cc(O)no5)CC4)cc3)CC2)c1NC(=O)O[C@H](C)c1ccccc1   25 to 50%
4  Cc1nsc(C2CCN(c3ccc(C4(C(=O)NS(=O)(=O)C(F)(F)F)CC4)cc3)CC2)c1NC(=O)O[C@H](C)c1ccccc1   50 to 75%
5  Cc1noc(N2CCC(c3ccc(C4(C(=O)O)CC4)cc3)CC2)c1NC(=O)O[C@H](C)c1ccccc1   50 to 75%
6  Cc1noc([C@H]2CCN(c3ccc(C4(C(=O)O)CC4)cc3)[C@@H](C)C2)c1NC(=O)O[C@H](C)c1ccccc1 (single isomer, unassigned)       > 75%

Given item Cc1ccccc1[C@@H](C)OC(=O)Nc1c(C)noc1C1CCN(c2ccc(C3(C(=O)NS(N)(=O)=O)CC3)cc2)CC1 , the value recorded as its remaining at 0.5 h is 50 to 75%

Cited source: patent US20260356824A1
